Test: Antagonistic activity towards NMDA receptor 1A/2C subtype was determined
Format: functional, Rattus norvegicus
pIC50: −log10 of the molar value.
recorded_endpoint: pIC50

compound	result_value
O=C(/C=C/c1ccc(Cl)cc1)NCCc1cccc(O)c1	3.76
N#C/C(=C\C(=O)NCCc1ccc(O)cc1)c1ccc(Cl)cc1	< 3.52
O=C(/C=C/c1ccccc1)NCCc1ccc(O)cc1	< 3.52
O=C(/C=C/c1ccc(Cl)cc1)NCCc1ccc(Cl)cc1	< 3.52
O=C(/C=C/c1ccc(Cl)cc1)NCCc1ccc(O)cc1	< 3.52
O=C(/C=C/c1ccc(O)cc1)NCCc1ccc(O)cc1 [N-P-COUMAROYL TYRAMINE]	3.70
O=C(/C=C/c1ccc(O)cc1)NCCc1ccc(Cl)cc1	< 3.52
O=C(/C=C/c1ccc(Cl)cc1)NCCc1ccccc1	< 3.52

## Task Entry `N#C/C(=C\c1ccc(Cl)cc1)C(=O)NCCc1ccc(O)cc1` has what pIC50?
## Result 3.98

###

Assay: Antagonistic activity towards NMDA receptor 1A/2B subtype was determined
Format: functional, Rattus norvegicus
recorded_endpoint: pIC50
pIC50 here is simply -log10 of the concentration when that concentration is written in mol/L.

molecule	result_value
N#C/C(=C\c1ccc(Cl)cc1)C(=O)NCCc1ccc(O)cc1	5.47

## Task Entry `O=C(/C=C/c1ccc(O)cc1)NCCc1ccc(Cl)cc1` has what pIC50?
## Result 6.48

###

Assay: Antagonistic activity towards NMDA receptor 1A/2A subtype was determined
Format: functional, Rattus norvegicus
recorded_endpoint: IC50

compound	recorded_endpoint	result_value
O=C(/C=C/c1ccc(Cl)cc1)NCCc1ccc(Cl)cc1	IC50	160 µM
N#C/C(=C\C(=O)NCCc1ccc(O)cc1)c1ccc(Cl)cc1	IC50	> 300 µM
O=C(/C=C/c1ccc(Cl)cc1)NCCc1cccc(O)c1	IC50	> 300 µM
N#C/C(=C\c1ccc(Cl)cc1)C(=O)NCCc1ccc(O)cc1	IC50	78 µM
O=C(/C=C/c1ccc(O)cc1)NCCc1ccc(O)cc1	IC50	> 300 µM
O=C(/C=C/c1ccc(O)cc1)NCCc1ccc(Cl)cc1	IC50	> 300 µM

## Task Entry `O=C(/C=C/c1ccc(Cl)cc1)NCCc1ccccc1` has what IC50?
## Result > 300 µM

## Task Entry `O=C(/C=C/c1ccc(Cl)cc1)NCCc1ccc(O)cc1` has what IC50?
## Result > 300 µM

## Task Entry `O=C(/C=C/c1ccccc1)NCCc1ccc(O)cc1` has what IC50?
## Result > 300 µM

###

Test: Antagonistic activity towards NMDA receptor 1A/2B subtype was determined
Type: functional, Rattus norvegicus
pIC50: −log10 of the molar value.
Could you label it MET if measured pIC50 is 5 or higher, and NOT MET otherwise?

Some entries whose results are on file:
compound	category
O=C(/C=C/c1ccc(Cl)cc1)NCCc1ccc(Cl)cc1	NOT MET
O=C(/C=C/c1ccc(Cl)cc1)NCCc1ccccc1	NOT MET
O=C(/C=C/c1ccc(Cl)cc1)NCCc1ccc(O)cc1	MET
O=C(/C=C/c1ccccc1)NCCc1ccc(O)cc1	MET

Kindly review the next molecule as well.
## Task Has `O=C(/C=C/c1ccc(O)cc1)NCCc1ccc(O)cc1` a recorded pIC50 greater than or equal to 5?
## Result NOT MET

The values you see were collected from ChEMBL document CHEMBL1130622.
